Tested on: pneumococcal strains
Assay: Microbroth dilution MICs of strains tested by time-kill and PAE
Assay type: cell-based
Settings: Streptococcus pneumoniae, strain 8 (I) penicillin intermediate; read-out: Microdilution MIC
Description: Agar dilution methodology was performed on 234 strains as described previously (M. R. Jacobs, Clin. Infect. Dis. 15:119-127, 1992; Jacobs, et al., Rev. Med. Microbiol. 6:77-93, 1995), using Mueller-Hinton agar (BBL Microbiology Systems, Cockeysville, Md.) supplemented with 5% sheep blood. […]
metric_name: log10 MIC (log10 of the value in µg/mL)
The common logarithm of MIC in µg/mL is what is listed.

Worked set:
{"compound": "CC[C@H]1OC(=O)[C@H](C)[C@@H](O[C@H]2C[C@@](C)(OC)[C@@H](O)[C@H](C)O2)[C@H](C)[C@@H](O[C@@H]2O[C@H](C)C[C@H](N(C)C)[C@H]2O)[C@](C)(OC)C[C@@H](C)C(=O)[C@H](C)[C@@H](O)[C@]1(C)O [Clarithromycin, clarithromycin]", "metric_name": "log10 MIC", "assay_value": -1.52}
{"compound": "CC1(C)S[C@@H]2[C@H](NC(=O)[C@H](N)c3ccc(O)cc3)C(=O)N2[C@H]1C(=O)O [Amoxicillin, amoxicillin]", "metric_name": "log10 MIC", "assay_value": -1.22}
{"compound": "CO/N=C1\\CN(c2nc3c(cc2F)c(=O)c(C(=O)O)cn3C2CC2)CC1CN (racemic) [Gemifloxacin]", "metric_name": "log10 MIC", "assay_value": -1.80}
{"compound": "N[C@@H]1[C@H]2CN(c3nc4c(cc3F)c(=O)c(C(=O)O)cn4-c3ccc(F)cc3F)C[C@@H]12 [Trovafloxacin, trovafloxacin]", "metric_name": "log10 MIC", "assay_value": -0.90}
{"compound": "CC1(C)S[C@@H]2[C@H](NC(=O)Cc3ccccc3)C(=O)N2[C@H]1C(=O)O [Penicillin, penicillin G]", "metric_name": "log10 MIC", "assay_value": -0.30}

// switching to the query compound
Request: Supply recorded log10 MIC for Cc1c(F)c(N2CCNC(C)C2)cc2c1c(=O)c(C(=O)O)cn2C1CC1 (stereo not drawn) [Grepafloxacin, grepafloxacin] here.
Result: -0.90
